Target: Cathepsin S (Homo sapiens)
Test: Inhibition of human recombinant cathepsin S expressed in baculovirus by fluorescence assay
For each entry below, report its pKi value.
Give bare numbers, as −log10 of the molar value.

# example entries with known answers
CC[C@@H]1OCC(=O)[C@H]1NC(=O)[C@H](CC1(C)CCCC1)NC(=O)c1ccc(NS(=O)(=O)c2cccnc2)cc1 | 8.68
CC[C@@H]1OCC(=O)[C@H]1NC(=O)[C@H](CC1(C)CCCC1)NC(=O)c1ccc(NS(=O)(=O)c2cccc(F)c2)cc1 | 8.47
CC[C@@H]1OCC(=O)[C@H]1NC(=O)[C@H](CC1(C)CCCC1)NC(=O)c1ccc(NS(C)(=O)=O)nc1 | 7.20
CC[C@@H]1OCC(=O)[C@H]1NC(=O)[C@H](CC1(C)CCCC1)NC(=O)c1ccc(NS(=O)(=O)C2CC2)cc1 | 8.62
CC[C@@H]1OCC(=O)[C@H]1NC(=O)[C@H](CC1(C)CCCC1)NC(=O)c1ccc(NS(=O)(=O)c2ccccc2C#N)cc1 | 9.10
CC[C@@H]1OCC(=O)[C@H]1NC(=O)[C@H](CC1(C)CCCC1)NC(=O)c1ccc(NS(=O)(=O)N(C)C)cc1 | 8.28

Now look at this one.
For CC[C@@H]1OCC(=O)[C@H]1NC(=O)[C@H](CC1(C)CCCC1)NC(=O)c1ccc(NS(=O)(=O)Cc2ccccc2)cc1 , what is its reported pKi?
7.51

----------
Molecular target: Cathepsin S (Homo sapiens)
Assay: Inhibition of human recombinant cathepsin S expressed in baculovirus by fluorescence assay
pKi: −log10 of the molar value.
Please note: satisfied applies when pKi is 8 or greater, and not satisfied applies otherwise.

Check this compound for pKi at or above 8: CC[C@@H]1OCC(=O)[C@H]1NC(=O)[C@H](CC1(C)CCCC1)NC(=O)c1ccc(NS(C)(=O)=O)cc1OC
not satisfied

----------
Biological target: Cathepsin S (Homo sapiens, UniProt P25774)
Sequence (P25774 whole entry): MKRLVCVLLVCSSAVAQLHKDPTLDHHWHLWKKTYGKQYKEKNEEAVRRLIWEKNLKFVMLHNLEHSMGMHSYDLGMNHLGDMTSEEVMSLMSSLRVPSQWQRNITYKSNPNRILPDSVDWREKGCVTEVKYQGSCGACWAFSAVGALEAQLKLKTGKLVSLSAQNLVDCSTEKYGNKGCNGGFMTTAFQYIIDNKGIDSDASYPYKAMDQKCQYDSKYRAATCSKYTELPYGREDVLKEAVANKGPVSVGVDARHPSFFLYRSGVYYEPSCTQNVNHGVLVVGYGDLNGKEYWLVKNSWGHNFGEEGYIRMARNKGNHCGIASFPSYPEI
Test: Inhibition of human recombinant cathepsin S expressed in baculovirus by fluorescence assay
For each entry below, report its pKi value.
Answers are plain numbers, as −log10 of the molar value.

CC[C@@H]1OCC(=O)[C@H]1NC(=O)[C@H](CC1(C)CCCC1)NC(=O)c1ccc(NS(C)(=O)=O)c(F)c1 | 7.80
CC[C@@H]1OCC(=O)[C@H]1NC(=O)[C@H](CC1(C)CCCC1)NC(=O)c1ccc(NS(=O)(=O)C(C)C)cc1 | 8.54
CC[C@@H]1OCC(=O)[C@H]1NC(=O)[C@H](CC1(C)CCCC1)NC(=O)c1ccc(NS(=O)(=O)c2ccc(OC)cc2)cc1 | 8.48

For CC[C@@H]1OCC(=O)[C@H]1NC(=O)[C@H](CC(C)(C)C)NC(=O)c1ccsc1 , what is its reported pKi?
7.51

----------
The following compounds have recorded Ki on UniProtKB P07711.
Sequence (P07711 whole entry): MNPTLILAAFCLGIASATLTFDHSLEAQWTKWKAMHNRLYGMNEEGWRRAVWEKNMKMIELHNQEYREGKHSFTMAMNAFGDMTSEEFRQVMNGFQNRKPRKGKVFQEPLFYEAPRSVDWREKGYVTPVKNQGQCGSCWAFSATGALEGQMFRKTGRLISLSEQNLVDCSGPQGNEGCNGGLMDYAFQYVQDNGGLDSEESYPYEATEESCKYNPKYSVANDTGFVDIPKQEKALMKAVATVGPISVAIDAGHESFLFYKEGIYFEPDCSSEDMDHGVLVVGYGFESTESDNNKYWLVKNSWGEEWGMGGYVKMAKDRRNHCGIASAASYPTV
One number for each entry, in µM.

CC[C@@H]1OCC(=O)[C@H]1NC(=O)[C@H](CC1(C)CCCC1)NC(=O)c1ccc(NS(=O)(=O)c2ncc(C)s2)cc1 | 17
CC[C@@H]1OCC(=O)[C@H]1NC(=O)[C@H](CC1(C)CCCC1)NC(=O)c1ccc(NS(C)(=O)=O)c(OC)c1 | 7.2

State recorded Ki for all listed compounds.
1. CC[C@@H]1OCC(=O)[C@H]1NC(=O)[C@H](CC1(C)CCCC1)NC(=O)c1ccc(NS(=O)(=O)c2ccc(N)cc2)cc1
2. CC[C@@H]1OCC(=O)[C@H]1NC(=O)[C@H](CC1(C)CCCC1)NC(=O)c1ccc(NS(=O)(=O)c2nc(C(C)C)cs2)cc1

[9.1, 9.1]

Sourced from ChEMBL document CHEMBL1143346
